biological target: JAK3 enzyme (Homo sapiens (Human)); test: JAK Caliper Enzyme Assay at 4 μM or 1 mM ATP; assay type: biochemical; conditions: read-out: JAK3 (4 μM ATP) IC50; 4 μM ATP
Sequence (P52333 whole entry, species assumed): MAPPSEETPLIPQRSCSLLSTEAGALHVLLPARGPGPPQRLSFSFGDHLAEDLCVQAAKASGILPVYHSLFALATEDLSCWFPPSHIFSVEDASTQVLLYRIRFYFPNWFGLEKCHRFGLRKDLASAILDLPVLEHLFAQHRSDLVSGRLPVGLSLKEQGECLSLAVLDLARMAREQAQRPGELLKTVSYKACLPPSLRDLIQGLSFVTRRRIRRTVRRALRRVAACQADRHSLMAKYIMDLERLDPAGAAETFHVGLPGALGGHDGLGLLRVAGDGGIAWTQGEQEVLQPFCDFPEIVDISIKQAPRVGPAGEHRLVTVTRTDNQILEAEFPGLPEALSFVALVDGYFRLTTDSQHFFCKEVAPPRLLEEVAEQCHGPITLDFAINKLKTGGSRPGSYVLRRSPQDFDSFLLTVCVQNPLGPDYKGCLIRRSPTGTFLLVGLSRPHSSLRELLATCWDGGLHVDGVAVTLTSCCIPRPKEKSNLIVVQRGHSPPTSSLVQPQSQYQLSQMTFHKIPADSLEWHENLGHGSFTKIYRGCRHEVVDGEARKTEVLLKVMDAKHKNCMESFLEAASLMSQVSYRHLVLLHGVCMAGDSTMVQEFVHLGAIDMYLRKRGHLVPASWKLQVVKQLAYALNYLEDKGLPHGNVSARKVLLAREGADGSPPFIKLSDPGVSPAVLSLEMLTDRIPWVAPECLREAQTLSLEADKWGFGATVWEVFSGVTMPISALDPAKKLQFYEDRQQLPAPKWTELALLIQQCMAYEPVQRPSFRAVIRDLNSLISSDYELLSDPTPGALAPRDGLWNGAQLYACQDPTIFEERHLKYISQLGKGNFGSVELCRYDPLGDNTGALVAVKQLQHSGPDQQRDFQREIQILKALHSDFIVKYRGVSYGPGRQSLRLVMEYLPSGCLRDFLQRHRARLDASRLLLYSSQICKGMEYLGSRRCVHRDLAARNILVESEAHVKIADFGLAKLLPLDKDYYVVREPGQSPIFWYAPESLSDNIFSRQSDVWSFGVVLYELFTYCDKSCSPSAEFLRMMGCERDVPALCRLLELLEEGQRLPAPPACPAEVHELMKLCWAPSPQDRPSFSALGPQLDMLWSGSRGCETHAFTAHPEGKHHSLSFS
pIC50: −log10 of the molar value.
Reported pIC50 values follow for various compounds

{"cpd smiles": "C=CC(=O)N1CCC(Nc2cnc3[nH]cc(C(=O)N[C@H]4CC[C@H](F)C4)c3n2)CC1", "pIC50": 9.70}
{"cpd smiles": "C=CC(=O)N1C[C@H](C#N)C[C@@H](Nc2ncnc3[nH]ccc23)C1", "pIC50": 9.52}
{"cpd smiles": "C=CC(=O)N1C[C@H](Nc2ncnc3[nH]cc(C#N)c23)CC[C@@H]1C", "pIC50": 9.22}
{"cpd smiles": "C=CC(=O)N1C[C@H](O)C[C@@H](Nc2ncnc3[nH]ccc23)C1", "pIC50": 8.38}
{"cpd smiles": "CN(C)C/C=C/C(=O)N1CCC[C@H](Nc2ncnc3[nH]ccc23)C1", "pIC50": 7.31}
{"cpd smiles": "C=CC(=O)N1CCC[C@@H](Nc2nc(Nc3cccnc3)nc3[nH]ccc23)C1", "pIC50": 8.04}
{"cpd smiles": "C=CC(=O)N1CCC(Nc2cnc3[nH]cc(C(=O)NCCCC(F)(F)F)c3n2)CC1", "pIC50": 10.00}
{"cpd smiles": "C=CC(=O)N1C[C@@H](Nc2ncnc3[nH]ccc23)[C@@H]2CC[C@H]1C2", "pIC50": 6.22}

###

biological target: JAK3 enzyme (Homo sapiens (Human)); assay: JAK Caliper Enzyme Assay at 4 μM or 1 mM ATP; type: biochemical; settings: read-out: JAK3 (1 mM ATP) IC50; 1 mM ATP
pIC50: −log10 of the molar value.
Below, each entry is listed alongside its reported pIC50.

{"molecule": "C=CC(=O)N1CCN(c2cnc3[nH]cc(C(=O)NC(C)C)c3n2)C(C)(C)C1 [Example 312]", "comparison operator": "=", "pIC50": 6.23}
{"molecule": "C=CC(=O)N1CCC(Nc2cnc3[nH]cc(C(=O)N[C@H](C)COC)c3n2)CC1 [Example 268]", "comparison operator": "=", "pIC50": 8.10}
{"molecule": "C=CC(=O)N1CCC(Nc2cnc3[nH]cc(C(=O)NC4CCCC4(F)F)c3n2)CC1 (stereo not drawn) [Example 234]", "comparison operator": "=", "pIC50": 8.31}
{"molecule": "C=CC(=O)N1CCC(Nc2cnc3[nH]cc(C(=O)NC4CCCC(F)(F)C4)c3n2)CC1 (stereo not drawn) [Example 236]", "comparison operator": "=", "pIC50": 8.08}
{"molecule": "C=CC(=O)N1CCC(Nc2cnc3[nH]cc(-c4ccc(S(C)(=O)=O)cc4)c3n2)CC1 [Example 203]", "comparison operator": "=", "pIC50": 6.83}
{"molecule": "C=CC(=O)N1CCCN(c2cnc3[nH]cc(C(=O)NC(C)C)c3n2)CC1 [Example 185]", "comparison operator": "=", "pIC50": 5.84}
{"molecule": "C=CC(=O)N1CCC[C@@H](Nc2ncnc3[nH]cc(-c4cccnc4)c23)C1 [Example 26]", "comparison operator": "=", "pIC50": 6.82}
{"molecule": "C=CC(=O)N1CC(Nc2cnc3[nH]ccc3n2)C1 [Example 337]", "comparison operator": "=", "pIC50": 7.02}
{"molecule": "C/C=C/C(=O)N1CCC[C@@H](Nc2ncnc3[nH]ccc23)C1 [Example 105]", "comparison operator": "<", "pIC50": 5.00}
{"molecule": "C=CC(=O)N1CCC(Nc2cnc3[nH]cc(C(=O)N4CCC4)c3n2)CC1 [Example 284]", "comparison operator": "=", "pIC50": 6.75}
{"molecule": "C=CC(=O)N1CCC(Nc2cnc3[nH]cc(C(=O)N[C@@H]4CCC[C@H]4F)c3n2)CC1 [Example 237]", "comparison operator": "=", "pIC50": 8.11}
{"molecule": "C=CC(=O)N1CCC[C@@H](Nc2ncnc3[nH]cc(-c4cnn(C)c4)c23)C1 [Example 28]", "comparison operator": "=", "pIC50": 6.45}
{"molecule": "C=CC(=O)N1CCC(Nc2cnc3[nH]cc(C(=O)NC(C)(C)C)c3n2)CC1 [Example 266]", "comparison operator": "=", "pIC50": 7.87}
{"molecule": "C=C(COC)C(=O)N1CCC[C@@H](Nc2ncnc3[nH]ccc23)C1 [Example 94]", "comparison operator": "<", "pIC50": 5.00}
{"molecule": "C=CC(=O)N1CC[C@@]2(C)CCN(c3ncnc4[nH]ccc34)[C@H]2C1 [Example 122]", "comparison operator": "<", "pIC50": 5.00}
{"molecule": "C=CC(=O)N1C[C@H](Nc2ncnc3[nH]ccc23)CC[C@H]1CC [Example 124]", "comparison operator": "<", "pIC50": 5.00}
{"molecule": "C=CC(=O)NC1CN(c2cnc3[nH]cc(C(=O)NC(C)C)c3n2)C1 [Example 173]", "comparison operator": "=", "pIC50": 6.16}
{"molecule": "C=CC(=O)N1CCC[C@@H](Nc2ncnc3[nH]cc(C#N)c23)C1 [Example 45]", "comparison operator": "=", "pIC50": 6.77}
{"molecule": "C=CC(=O)N1C[C@H](Nc2ncnc3[nH]cc(C#N)c23)CC[C@@H]1C [Example 163]", "comparison operator": "=", "pIC50": 7.33}
{"molecule": "C#Cc1c[nH]c2ncnc(N3CC[C@H]4CCN(C(=O)C=C)C[C@H]43)c12 [Example 48]", "comparison operator": "=", "pIC50": 7.00}
{"molecule": "C=CC(=O)N1CCC(Nc2cnc3[nH]cc(C(=O)N[C@H]4CC[C@@H](F)C4)c3n2)CC1 [Example 244]", "comparison operator": "=", "pIC50": 8.14}
{"molecule": "C=CC(=O)N1[C@@H]2CC[C@H]1CN(c1cnc3[nH]cc(C(=O)NC(C)C)c3n1)C2 [Example 301]", "comparison operator": "=", "pIC50": 7.05}
{"molecule": "C=CC(=O)N1CCC(Nc2cnc3[nH]cc(-c4ccncc4F)c3n2)CC1 [Example 200]", "comparison operator": "=", "pIC50": 7.05}
{"molecule": "C=CC(=O)N1CCC(Oc2cnc3[nH]cc(-c4ccc(S(C)(=O)=O)cc4)c3n2)CC1 [Example 229]", "comparison operator": "=", "pIC50": 6.13}
{"molecule": "C=CC(=O)N[C@H]1CC[C@@H](Nc2cnc3[nH]cc(C(=O)NC(C)C)c3n2)CC1 [Example 182]", "comparison operator": "=", "pIC50": 6.01}
{"molecule": "C=CC(=O)N1CCC(Oc2cnc3[nH]cc(-c4cnn(C)c4)c3n2)CC1 [Example 218]", "comparison operator": "=", "pIC50": 7.09}
{"molecule": "C=CC(=O)N1CCC[C@@H](Nc2ncnc3[nH]cc(-c4ccc5c(cnn5C)c4)c23)C1 [Example 34]", "comparison operator": "=", "pIC50": 5.32}
{"molecule": "C=CC(=O)N1C[C@H](Nc2ncnc3[nH]ccc23)CC[C@@H]1CC (single isomer, unassigned) [Example 9]", "comparison operator": "=", "pIC50": 7.27}
{"molecule": "C=CC(=O)N1CC[C@@H]2CN(c3cnc4[nH]cc(C(=O)NC(C)C)c4n3)C[C@@H]21 [Example 170]", "comparison operator": "=", "pIC50": 6.41}
{"molecule": "C=CC(=O)N1CCC(Nc2cnc3[nH]cc(-c4cncnc4)c3n2)CC1 [Example 202]", "comparison operator": "=", "pIC50": 7.00}
{"molecule": "C=CC(=O)N1CCN(c2cnc3[nH]cc(C(=O)NC(C)C)c3n2)[C@@H](C(C)C)C1 [Example 323]", "comparison operator": "=", "pIC50": 6.05}
{"molecule": "C=CC(=O)N1CCN(c2cnc3[nH]cc(C(=O)NC(C)C)c3n2)[C@@H](C2CC2)C1 [Example 314]", "comparison operator": "=", "pIC50": 6.18}
{"molecule": "C/C=C\\C(=O)N1CCC[C@@H](Nc2ncnc3[nH]ccc23)C1 [Example 102]", "comparison operator": "<", "pIC50": 5.00}
